target: Xanthine dehydrogenase/oxidase (Homo sapiens, UniProt P47989); assay: Inhibition of xanthine oxidase (unknown origin) using xanthine as substrate preincubated for 20 mins followed by substrate addition measured for 5 mins by absorbance based analysis
Sequence (P47989 whole entry): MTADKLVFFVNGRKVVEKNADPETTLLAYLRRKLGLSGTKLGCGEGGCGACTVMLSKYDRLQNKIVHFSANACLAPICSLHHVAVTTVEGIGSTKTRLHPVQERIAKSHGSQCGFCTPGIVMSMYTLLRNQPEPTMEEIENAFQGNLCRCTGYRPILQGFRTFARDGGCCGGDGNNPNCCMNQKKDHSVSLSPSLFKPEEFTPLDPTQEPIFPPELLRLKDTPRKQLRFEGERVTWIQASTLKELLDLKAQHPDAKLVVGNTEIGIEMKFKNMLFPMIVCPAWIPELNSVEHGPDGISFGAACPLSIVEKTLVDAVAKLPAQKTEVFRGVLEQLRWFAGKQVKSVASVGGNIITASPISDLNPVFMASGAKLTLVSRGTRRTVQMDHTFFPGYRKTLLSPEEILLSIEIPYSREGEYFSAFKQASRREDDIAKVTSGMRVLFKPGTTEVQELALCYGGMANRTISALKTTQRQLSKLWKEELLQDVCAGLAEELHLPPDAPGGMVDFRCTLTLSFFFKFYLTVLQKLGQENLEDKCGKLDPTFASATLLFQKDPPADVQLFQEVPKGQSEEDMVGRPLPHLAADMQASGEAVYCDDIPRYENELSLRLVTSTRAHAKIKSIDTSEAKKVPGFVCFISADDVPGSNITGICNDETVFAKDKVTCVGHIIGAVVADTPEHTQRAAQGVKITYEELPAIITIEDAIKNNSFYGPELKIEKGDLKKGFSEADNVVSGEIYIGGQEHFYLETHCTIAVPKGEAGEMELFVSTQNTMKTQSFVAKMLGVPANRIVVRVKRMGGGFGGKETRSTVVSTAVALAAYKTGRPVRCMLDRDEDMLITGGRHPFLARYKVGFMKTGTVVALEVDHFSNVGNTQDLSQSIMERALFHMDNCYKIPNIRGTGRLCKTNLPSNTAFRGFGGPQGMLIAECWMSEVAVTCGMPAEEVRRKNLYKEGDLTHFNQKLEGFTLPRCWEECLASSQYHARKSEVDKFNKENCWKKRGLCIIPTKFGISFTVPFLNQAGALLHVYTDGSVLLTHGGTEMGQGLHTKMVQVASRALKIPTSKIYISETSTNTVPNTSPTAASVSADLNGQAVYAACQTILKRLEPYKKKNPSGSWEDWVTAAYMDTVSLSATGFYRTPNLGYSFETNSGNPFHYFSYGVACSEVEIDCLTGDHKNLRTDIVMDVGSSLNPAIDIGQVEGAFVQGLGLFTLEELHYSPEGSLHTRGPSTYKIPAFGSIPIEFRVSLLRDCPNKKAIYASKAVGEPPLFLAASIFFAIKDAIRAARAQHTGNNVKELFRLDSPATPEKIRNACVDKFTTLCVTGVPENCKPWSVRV
Recorded metric: IC50 (µM)

Input smiles | IC50, µM
COc1ccc(C(=O)/C=C/c2ccc(O)cc2)cc1 | 4.5
O=C(/C=C/c1ccc(O)cc1)c1ccc(O)c(O)c1 | 5.6

----------
target: Xanthine dehydrogenase/oxidase (Bos taurus)
Sequence (P80457 whole entry): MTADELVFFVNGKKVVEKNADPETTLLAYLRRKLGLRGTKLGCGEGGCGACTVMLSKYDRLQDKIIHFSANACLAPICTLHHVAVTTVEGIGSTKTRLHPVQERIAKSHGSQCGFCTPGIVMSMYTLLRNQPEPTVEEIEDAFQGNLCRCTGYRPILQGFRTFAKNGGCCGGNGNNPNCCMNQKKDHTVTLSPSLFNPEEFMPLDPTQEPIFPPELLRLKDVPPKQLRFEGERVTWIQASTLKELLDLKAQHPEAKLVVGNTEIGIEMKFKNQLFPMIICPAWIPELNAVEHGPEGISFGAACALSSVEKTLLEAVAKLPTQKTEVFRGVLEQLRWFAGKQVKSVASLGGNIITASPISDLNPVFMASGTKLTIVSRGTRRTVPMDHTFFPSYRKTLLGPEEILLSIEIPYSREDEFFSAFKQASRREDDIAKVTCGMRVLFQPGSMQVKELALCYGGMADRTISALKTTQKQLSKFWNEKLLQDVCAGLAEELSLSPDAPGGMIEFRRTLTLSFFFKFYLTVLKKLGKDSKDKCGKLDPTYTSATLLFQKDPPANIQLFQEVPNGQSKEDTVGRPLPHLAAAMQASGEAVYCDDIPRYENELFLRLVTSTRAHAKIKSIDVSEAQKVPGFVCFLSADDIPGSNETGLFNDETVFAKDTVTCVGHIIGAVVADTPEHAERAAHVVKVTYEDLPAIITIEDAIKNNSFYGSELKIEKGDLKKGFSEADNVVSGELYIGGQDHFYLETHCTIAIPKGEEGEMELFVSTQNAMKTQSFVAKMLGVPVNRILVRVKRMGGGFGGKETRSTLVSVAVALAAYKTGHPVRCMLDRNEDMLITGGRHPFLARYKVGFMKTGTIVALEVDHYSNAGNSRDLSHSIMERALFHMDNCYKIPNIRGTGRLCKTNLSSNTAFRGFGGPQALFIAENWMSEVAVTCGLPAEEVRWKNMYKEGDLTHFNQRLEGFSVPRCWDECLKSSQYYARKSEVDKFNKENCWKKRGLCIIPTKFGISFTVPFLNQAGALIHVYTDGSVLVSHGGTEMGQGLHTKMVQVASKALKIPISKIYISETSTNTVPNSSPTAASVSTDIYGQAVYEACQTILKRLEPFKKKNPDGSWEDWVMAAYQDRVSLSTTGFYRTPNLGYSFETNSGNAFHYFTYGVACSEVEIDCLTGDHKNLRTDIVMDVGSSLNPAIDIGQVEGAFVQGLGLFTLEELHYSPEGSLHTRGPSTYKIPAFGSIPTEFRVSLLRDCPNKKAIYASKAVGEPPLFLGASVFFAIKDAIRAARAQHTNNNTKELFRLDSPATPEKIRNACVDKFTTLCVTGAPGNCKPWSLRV
Recorded metric: IC50 (nM)

Here are 4 compounds together with their reported answers.
Input smiles | Recorded metric | Result unit | Numeric readout
CS(=O)(=O)c1ccc(C(=O)/C=C/c2cc(C(=O)O)ccc2O)cc1 | IC50 | nM | 109
O=C(O)c1ccc(O)c(/C=C/C(=O)c2ccc3c(c2)OCO3)c1 | IC50 | nM | 178
CC1(C)CCSc2ccc(C(=O)/C=C/c3cc(C(=O)O)ccc3O)cc21 | IC50 | nM | 368
Cc1ccc(C(=O)/C=C/c2cc(C(=O)O)ccc2O)cc1 | IC50 | nM | 176

[A] CC(C)COc1ccc(C(=O)/C=C/c2cc(C(=O)O)ccc2O)cc1
[B] CCCc1ccc(C(=O)/C=C/c2cc(C(=O)O)ccc2O)cc1
[C] C#Cc1ccc(C(=O)/C=C/c2cc(C(=O)O)ccc2O)cc1
Q: Ranking field: IC50; order: falling. Could you list the labels in the order requested?
Result: A, B, C
